target: full-length beta-Catenin (Uniprot ID P35222) (Homo sapiens, UniProt P35222); construct: 10 nM full-length beta-Catenin (Uniprot ID P35222); assay: Fluorescence polarization IC50 (beta-catenin / 5FAM-TCF4 10-53 competition); format: binding; conditions: fluorescence polarization; read-out: beta-Catenin FP IC50
Sequence (P35222 whole entry): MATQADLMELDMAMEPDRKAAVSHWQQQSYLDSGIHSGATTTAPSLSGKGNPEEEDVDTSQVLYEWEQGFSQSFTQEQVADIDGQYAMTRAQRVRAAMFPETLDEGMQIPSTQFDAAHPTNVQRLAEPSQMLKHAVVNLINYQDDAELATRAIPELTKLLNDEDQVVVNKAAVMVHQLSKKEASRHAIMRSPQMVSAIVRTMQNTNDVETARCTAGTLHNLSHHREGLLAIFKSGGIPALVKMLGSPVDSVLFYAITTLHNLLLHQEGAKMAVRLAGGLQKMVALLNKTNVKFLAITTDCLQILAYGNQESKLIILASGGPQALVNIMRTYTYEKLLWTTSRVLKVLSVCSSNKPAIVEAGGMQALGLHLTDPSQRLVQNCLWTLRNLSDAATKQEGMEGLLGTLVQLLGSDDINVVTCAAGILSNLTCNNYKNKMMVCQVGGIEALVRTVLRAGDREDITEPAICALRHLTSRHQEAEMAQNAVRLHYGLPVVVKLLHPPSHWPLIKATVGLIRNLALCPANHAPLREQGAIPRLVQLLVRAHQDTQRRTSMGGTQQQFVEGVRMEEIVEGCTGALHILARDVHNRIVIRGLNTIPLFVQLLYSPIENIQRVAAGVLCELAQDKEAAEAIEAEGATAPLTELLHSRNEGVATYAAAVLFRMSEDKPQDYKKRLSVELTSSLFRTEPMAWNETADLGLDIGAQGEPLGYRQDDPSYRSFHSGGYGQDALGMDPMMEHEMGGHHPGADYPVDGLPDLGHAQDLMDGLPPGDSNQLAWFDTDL
Parameter Measured: IC50 (nM)
Note: unit nM is implicit; provide only the numeric part.

Below are worked cases with known answers.
Molecule: CC(=O)N1CCC[C@]12CC=CCCCC1(CCCC=CCCCOC(=O)N3CC[C@@](C(=O)N[C@@H](Cc4ccsc4)C(=O)N[C@@H](Cc4csc5ccccc45)C(=O)N[C@H](CO)[C@@H](C)O)(C3)NC(=O)[C@H](Cc3ccccc3)NC(=O)[C@H](Cc3ccccc3)NC(=O)[C@H](C)NC(=O)[C@H](C)NC(=O)[C@H](Cc3ccccc3C(=O)O)NC(=O)[C@H](CC(=O)O)NC1=O)NC(=O)[C@H](CC(C)(C)C)NC(=O)[C@H](CC(=O)O)NC2=O (single isomer, unassigned) [I-1669]
Result Units: nM
IC50: 30
--
Molecule: CC(=O)N1CCC[C@]12CC=CCCCC1(CCCC=CCCCCCC[C@@](C)(C(=O)N[C@@H](Cc3ccccc3)C(=O)N[C@@H](Cc3csc4ccccc34)C(=O)N[C@@H](CCC(N)=O)C(N)=O)NC(=O)[C@H]([C@@H](C)O)NC(=O)[C@H](Cc3ccccc3)NC(=O)[C@H](C)NC(=O)[C@H](C)NC(=O)[C@H](CCC(=O)O)NC(=O)[C@H](CC(=O)O)NC1=O)NC(=O)[C@H](C)NC(=O)[C@H](CC(=O)O)NC2=O (some centres unmarked)
Result Units: nM
IC50: 105
--
Molecule: CC(=O)N1CCC[C@]12CC=CCCCC1(CCCC=CCCCOC(=O)N3CC[C@@](C(=O)N[C@@H](Cc4ccsc4)C(=O)N[C@@H](Cc4csc5ccccc45)C(=O)N[C@@H](Cc4c[nH]cn4)C(N)=O)(C3)NC(=O)[C@H](CC(N)=O)NC(=O)[C@H](Cc3ccccc3)NC(=O)[C@H](C)NC(=O)C(C)(C)NC(=O)[C@H]([C@@H](C)O)NC(=O)[C@H](CC(N)=O)NC1=O)NC(=O)[C@H](CC(C)(C)C)NC(=O)[C@H](CC(=O)O)NC2=O (some centres unmarked)
Result Units: nM
IC50: 7
--
Molecule: CC(=O)N1CCC[C@]12CC=CCCCC1(CCCC=CCCCCCC[C@@](C)(C(=O)N[C@@H](Cc3ccccc3)C(=O)N[C@@H](Cc3csc4ccccc34)C(=O)N[C@@H](CCC(N)=O)C(N)=O)NC(=O)[C@H](CC(C)C)NC(=O)[C@H](Cc3ccccc3)NC(=O)[C@H](C)NC(=O)[C@H](C)NC(=O)[C@H](CCC(=O)O)NC(=O)[C@H](CC(=O)O)NC1=O)NC(=O)[C@H](CCCCN)NC(=O)[C@H](CC(=O)O)NC2=O (some centres unmarked)
Result Units: nM
IC50: 133

Please find the next molecule below.
What does the data say about its IC50? Entry: CC(=O)N1CCC[C@]12CC=CCCCC1(CCCC=CCCCOC(=O)N3CC[C@@](C(=O)N[C@@H](Cc4ccccc4Cl)C(=O)N[C@@H](Cc4csc5ccccc45)C(=O)N[C@@H](Cc4ccccc4)C(N)=O)(C3)NC(=O)[C@H](CO)NC(=O)[C@H](Cc3ccccc3)NC(=O)[C@H](C)NC(=O)[C@H](C)NC(=O)[C@H](Cc3cccc(C(=O)O)c3)NC(=O)[C@H](CC(=O)O)NC1=O)NC(=O)[C@H](CC(C)(C)C)NC(=O)[C@H](CC(=O)O)NC2=O (some centres unmarked)
35

Source of measurements: patent US20240116985A1
